Data provenance is paper PMC4505066.

Target: H976Y gain-of-function (GOF) HDAC4 catalytic domain (Homo sapiens, UniProt P56524, H976Y)
Construct: the H976Y gain-of-function (GOF) HDAC4 catalytic domain; hexa-histidine tag (N, cleaved yes); S-tag (N, cleaved yes); made in house; host or cells: Escherichia coli Rosetta (pET30)
Sequence (P56524 655-1084 H976Y limits assumed): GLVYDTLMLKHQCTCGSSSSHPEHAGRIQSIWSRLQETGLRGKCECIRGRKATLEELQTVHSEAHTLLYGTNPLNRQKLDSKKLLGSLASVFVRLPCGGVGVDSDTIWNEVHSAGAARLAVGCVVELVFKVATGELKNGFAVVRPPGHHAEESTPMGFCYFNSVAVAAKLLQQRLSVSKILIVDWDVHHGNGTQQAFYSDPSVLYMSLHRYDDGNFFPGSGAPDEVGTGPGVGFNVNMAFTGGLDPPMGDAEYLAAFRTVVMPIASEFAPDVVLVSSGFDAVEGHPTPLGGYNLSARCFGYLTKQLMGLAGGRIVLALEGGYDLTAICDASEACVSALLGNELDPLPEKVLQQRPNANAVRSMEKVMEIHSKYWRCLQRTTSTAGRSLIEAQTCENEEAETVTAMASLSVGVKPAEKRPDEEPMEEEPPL
Experiment: Fluorescence anisotropy binding of GSI peptide to H976Y gain-of-function HDAC4
Settings: read-out: GOF Kd of the GSI peptide in the presence of the HDAC inhibitor
pKd: −log10 of the molar value.
TEST_READOUT: pKd

>>> print(df.to_string())
                                   compound  value_observed
0  CCCC(CCC)C(=O)O [Valproic Acid, valproic acid, reference compound]            5.58
